PROTOCOL NOTES: Pharmacokinetic study of ribociclib in rats, alone and after rivaroxaban or apixaban (UPLC-MS/MS plasma levels)
Type: in vivo, Sprague-Dawley rats
EXPERIMENTAL SETUP: Sprague-Dawley, rat, plasma, oral, 60 mg/kg, rats administered 60 mg/kg
MEASURED ATTRIBUTE: Cmax

Just so you know, measured Cmax for CN(C)C(=O)c1cc2cnc(Nc3ccc(N4CCNCC4)cn3)nc2n1C1CCCC1 came out at ~1500 ng/mL

----------
PROTOCOL NOTES: Pharmacokinetic study of ribociclib in rats, alone and after rivaroxaban or apixaban (UPLC-MS/MS plasma levels)
Format: in vivo, Sprague-Dawley rats
EXPERIMENTAL SETUP: Sprague-Dawley, rat, plasma, po, 60 mg/kg, rats, RIBO 60 mg/kg after RIVA 2 mg/kg for 5 days; read-out: MRT0-t
MEASURED ATTRIBUTE: MRT last (h)
Numbers only, in h.

Just so you know, measured MRT last for CN(C)C(=O)c1cc2cnc(Nc3ccc(N4CCNCC4)cn3)nc2n1C1CCCC1 [RIBO, ribociclib] came out at 9.77

----------
PROTOCOL NOTES: Pharmacokinetic study of ribociclib in rats, alone and after rivaroxaban or apixaban (UPLC-MS/MS plasma levels)
Format: in vivo, Sprague-Dawley rats
EXPERIMENTAL SETUP: Sprague-Dawley, rat, plasma, po, 60 mg/kg, rats, RIBO 60 mg/kg after API 0.5 mg/kg for 5 days
Method: Experimental animals were randomly divided into nine groups (n = 6, Table 1). Ribociclib was suspended in methylcellulose (MC), rivaroxaban was prepared in hydroxypropyl methylcellulose (HPMC), and apixaban was suspended in 5% DMSO in water. To achieve steady-state blood concentrations, a drug typically requires five to seven half-lives. […] Apixaban and rivaroxaban concentrations in plasma samples were determined using our previously established UPLC-MS/MS method ([Wang et al., 2023]). […]
MEASURED ATTRIBUTE: AUC(0-t) (ng·h/mL)
Answers are plain numbers, in ng·h/mL.

Just so you know, measured AUC(0-t) for CN(C)C(=O)c1cc2cnc(Nc3ccc(N4CCNCC4)cn3)nc2n1C1CCCC1 came out at 24500

----------
PROTOCOL NOTES: Pharmacokinetic study of apixaban in rats, alone and after ribociclib (UPLC-MS/MS plasma levels)
Assay type: in vivo, Sprague-Dawley rats
EXPERIMENTAL SETUP: Sprague-Dawley, rat, plasma, po, 0.5 mg/kg, oral API 0.5 mg/kg alone, read-out: CLz/F (converted)
MEASURED ATTRIBUTE: CL/F (mL/min/kg)
Answers are plain numbers, in mL/min/kg.

Just so you know, measured CL/F for COc1ccc(-n2nc(C(N)=O)c3c2C(=O)N(c2ccc(N4CCCCC4=O)cc2)CC3)cc1 came out at 20.2

----------
PROTOCOL NOTES: Pharmacokinetic study of ribociclib in rats, alone and after rivaroxaban or apixaban (UPLC-MS/MS plasma levels)
Assay type: in vivo, Sprague-Dawley rats
EXPERIMENTAL SETUP: Sprague-Dawley, rat, plasma, po, 60 mg/kg, rats, RIBO 60 mg/kg after RIVA 2 mg/kg for 5 days; read-out: CLz/F (converted)
MEASURED ATTRIBUTE: CL/F (mL/min/kg)
Answers are plain numbers, in mL/min/kg.

Just so you know, measured CL/F for CN(C)C(=O)c1cc2cnc(Nc3ccc(N4CCNCC4)cn3)nc2n1C1CCCC1 [RIBO, ribociclib] came out at 47.2

This collection of values is drawn from paper PMC11994961.
